ASSAY PROTOCOL: Pharmacokinetic / brain penetration studies in mice
Type: in vivo
EXPERIMENTAL SETUP: male, CD-1, mouse, brain / plasma; non-tumor bearing mice
Measured Kp, listed per entry.
Please reply with the number alone, leaving off any unit.

In the examples that follow, each entry is paired with its recorded Kp.
C#Cc1cccc(Nc2ncnc3cc4c(cc23)OCCO4)c1 [JGK005] ... 0.648
Fc1c(Br)cccc1Nc1ncnc2cc3c(cc12)OC(CN1CCOCC1)CO3 (racemic) [JGK063] ... 0.725
Fc1c(Br)cccc1Nc1ncnc2cc3c(cc12)OCCO3 [JGK037] ... 2.12
CN1CCN(CC2COc3cc4ncnc(Nc5cccc(Br)c5F)c4cc3O2)CC1 (racemic) [JGK068] ... 3.54
CN1CCN(CC2COc3cc4ncnc(Nc5cccc(Br)c5)c4cc3O2)CC1 (centres unmarked) [JGK074] ... 1.66

Data point: CN1CCN(C[C@H]2COc3cc4ncnc(Nc5cccc(Br)c5F)c4cc3O2)CC1 [JGK068S] ; Kp = 3.78

Data point: C#Cc1cccc(Nc2ncnc3cc4c(cc23)OCCO4)c1F [JGK038] ; Kp = 0.843

Data point: CN(C)CC1COc2cc3ncnc(Nc4cccc(Br)c4F)c3cc2O1 (racemic) [JGK066] ; Kp = 2.74

Data point: Fc1c(Cl)cccc1Nc1ncnc2cc3c(cc12)OCCO3 [JGK010] ; Kp = 1.06

Data point: Fc1cccc(Nc2ncnc3cc4c(cc23)OCCO4)c1F [JGK028] ; Kp = 1.06

Data point: Fc1c(Br)cccc1Nc1ncnc2cc3c(cc12)O[C@@H](CN1CCNCC1)CO3 [JGK083S] ; Kp = 2.31

----------
Tested on: HK301
ASSAY PROTOCOL: GI50 assay (Cell Titer Glo proliferation, 3 days)
Type: cell-based, human
EXPERIMENTAL SETUP: Homo sapiens, 72 h; HK301, 3 days; read-out: HK301 GI50
Measured GI50, listed per entry.
Answer in nM, number only, no unit symbol.

In the examples that follow, each entry is paired with its recorded GI50.
C#Cc1cccc(N(C(=O)[C@H](Cc2ccccc2)NC(=O)OC(C)(C)C)c2ncnc3cc(OCCOC)c(OCCOC)cc23)c1 ... 92100
Fc1c(Nc2ncnc3cc4c(cc23)OCCO4)cccc1C(F)(F)F ... 3610
Fc1c(Cl)cccc1Nc1ncnc2cc3c(cc12)OCCO3 ... 780
CCOC(=O)N(c1cccc(Cl)c1F)c1ncnc2cc3c(cc12)OCCO3 ... 316000

Data point: Fc1c(Br)cccc1Nc1ncnc2cc3c(cc12)OC(CCN1CCCC1)CO3 (racemic) ; GI50 = 1840

Data point: [2H]C1([2H])Oc2cc3ncnc(Nc4cccc(Cl)c4F)c3cc2OC1([2H])[2H] ; GI50 = 1050

Data point: Fc1c(Br)cccc1Nc1ncnc2cc3c(cc12)OC(CCN1CCOCC1)CO3 (racemic) ; GI50 = 1210

Data point: Fc1c(Nc2ncnc3cc4c(cc23)OCCO4)ccc(Cl)c1Br ; GI50 = 2780

Data point: Fc1c(Br)cccc1Nc1ncnc2cc3c(cc12)OC(CCN1CCCCC1)CO3 (racemic) ; GI50 = 1020

Data point: CN1CCN(CC2COc3cc4ncnc(Nc5cccc(Cl)c5F)c4cc3O2)CC1 (racemic) ; GI50 = 1180

Data point: C=CC1COc2cc3ncnc(Nc4cccc(Br)c4F)c3cc2O1 (racemic) ; GI50 = 3780

Data point: Fc1cc(Br)c(F)c(Nc2ncnc3cc4c(cc23)OCCO4)c1 ; GI50 = 1130

Data point: CN(C)CCC1COc2cc3c(Nc4cccc(Br)c4F)ncnc3cc2O1 (racemic) ; GI50 = 3740

Data point: COC(=O)[C@@H](Cc1ccc(Nc2ncnc3cc4c(cc23)OCCO4)cc1)NC(=O)OC(C)(C)C ; GI50 = 11800

Data point: Fc1c(Br)cccc1Nc1ncnc2cc3c(cc12)O[C@@H](CN1CCNCC1)CO3 [JGK083S] ; GI50 = 529

Data point: Fc1c(Cl)cccc1Nc1ncnc2cc3c(cc12)OCO3 ; GI50 = 1660
